From: patent US20240391954A1

Test System: human MC3R (human, UniProt P41968 1-323)
Sequence (P41968 whole entry): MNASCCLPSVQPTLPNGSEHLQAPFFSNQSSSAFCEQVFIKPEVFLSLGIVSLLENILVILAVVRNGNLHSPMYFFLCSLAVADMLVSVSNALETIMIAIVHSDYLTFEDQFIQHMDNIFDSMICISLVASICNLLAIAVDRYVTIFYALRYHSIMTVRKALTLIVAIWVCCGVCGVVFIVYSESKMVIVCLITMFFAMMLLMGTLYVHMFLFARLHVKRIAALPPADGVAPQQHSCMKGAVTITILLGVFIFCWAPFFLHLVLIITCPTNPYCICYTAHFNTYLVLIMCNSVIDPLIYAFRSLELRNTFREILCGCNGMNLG
Test Method Notes: cell-based or functional assay
Positions of bridges follow the written chain, without caps; N, C: chain ends. Non-standard residues stand in square brackets, D forms with d. dDip = N[C@@H](C(=O)O)C(c1ccccc1)c1ccccc1; dPhe(4-Br) = N[C@H](Cc1ccc(Br)cc1)C(=O)O; d(αMeF) = C[C@@](N)(Cc1ccccc1)C(=O)O; NMeR = CN[C@@H](CCCNC(=N)N)C(=O)O; R2 = not defined here
Readout: % max activation (%)

Binder: Ac-RC[dA]R[dDip]R[dW]C-NH2 (disulfide 2-8) [CTX-1280]
Value: 2.6

Binder: Ac-RC[dA]R[dW]RWC-NH2 (disulfide 2-8; SMILES CC(=O)N[C@@H](CCCNC(=N)N)C(=O)N[C@H]1CSSC[C@@H](C(N)=O)NC(=O)[C@H](Cc2c[nH]c3ccccc23)NC(=O)[C@H](CCCNC(=N)N)NC(=O)[C@@H](Cc2c[nH]c3ccccc23)NC(=O)[C@H](CCCNC(=N)N)NC(=O)[C@@H](C)NC1=O) [CTX-1274]
Value: 5.4

Binder: Ac-RC[dA]R[d(αMeF)]R[dW]C-NH2 (disulfide 2-8; SMILES CC(=O)N[C@@H](CCCNC(=N)N)C(=O)N[C@H]1CSSC[C@@H](C(N)=O)NC(=O)[C@@H](Cc2c[nH]c3ccccc23)NC(=O)[C@H](CCCNC(=N)N)NC(=O)[C@@](C)(Cc2ccccc2)NC(=O)[C@H](CCCNC(=N)N)NC(=O)[C@@H](C)NC1=O) [CTX-1279]
Value: 20

Binder: Ac-RC[dA]R[dPhe(4-Br)]R[dW]CKPV-NH2 (disulfide 2-8; SMILES CC(=O)N[C@@H](CCCNC(=N)N)C(=O)N[C@H]1CSSC[C@@H](C(=O)N[C@@H](CCCCN)C(=O)N2CCC[C@H]2C(=O)N[C@H](C(N)=O)C(C)C)NC(=O)[C@@H](Cc2c[nH]c3ccccc23)NC(=O)[C@H](CCCNC(=N)N)NC(=O)[C@@H](Cc2ccc(Br)cc2)NC(=O)[C@H](CCCNC(=N)N)NC(=O)[C@@H](C)NC1=O) [CTX-1216]
Value: 11

Binder: Ac-RC[dA]RF[NMeR][dW]C-NH2 (disulfide 2-8; not fully specified (residue 5)) [CTX-1251]
Value: 30

Binder: R2-RC[dA]R[dPhe(4-Br)]R[dW]C-NH2 (disulfide 2-8; reading uncertain; also: printed as N-term. Mod. R2; Arg-cyclo(Cys-D-Ala-Arg-D-Phe(4-Br)-Arg-D-Trp-Cys)-NH2) [CTX-1226]
Value: 29
